All values here come from the COVID Moonshot data (paper PMC7615835).

- assayed system: SARS-CoV-2 Main Protease (SARS-CoV-2)
attribute measured: pIC50
API: returns pIC50 as number; meaning -log10 of concentration in mol/L.

C=CC(=O)N(c1ccc(C(C)(C)C)cc1)C(C(=O)Nc1ccc2c(c1)OCO2)c1cccnc1 (centres undefined) :: 4.44
CC(CCc1ccccc1)N1CCN(C(=O)CCl)CC1 (centres undefined) :: 4.69
O=C(Cc1cc(Cl)cc(Nc2c(Br)cncc2[N+](=O)[O-])c1)Nc1cncc2ccccc12 :: 5.74
O=C(Nc1cncc2ccccc12)C1CCS(=O)(=O)c2ccc(Cl)cc21 (centres undefined) :: 6.54
CS(=O)(=O)Nc1ccc2cncc(NC(=O)C3CN(S(=O)(=O)CC4(C#N)CC4)Cc4ccc(Cl)cc43)c2c1 (centres undefined) :: 6.57
C[C@H]1CN(c2cc(Cl)cc(CC(=O)Nc3cncc4ccccc34)c2)CCN1C(=O)OC(C)(C)C (stereo in doubt) :: 5.58
Cc1cccc2ncc(NC(=O)Cc3cccc(Cl)c3)n12 :: 5.26
CC(C)(C)c1ccc(N(C(=O)c2cnsn2)C(C(=O)NCCc2cccc(F)c2)c2cccnc2)cc1 (centres undefined) :: 4.88
N#Cc1cc(F)c(Nc2cc(Cl)cc(CC(=O)Nc3cncc4ccccc34)c2)cc1F :: 5.67

Now look at this one.
Field: pIC50 (SARS-CoV-2 Main Protease (SARS-CoV-2)). Entry: CC(C)(C)c1ccc(N(C(=O)c2cncs2)C(C(=O)NCCc2cccc(F)c2)c2cccnc2)cc1 (centres undefined)
4.62

====

Endpoint: IC50. System: UniProtKB P0DTD1. Items follow.
Your answer should be a plain number; it is taken to be in µM.

Given the entry O=C(c1ccnn1C1CC1)N1Cc2ccc(Cl)cc2C2(CCN(c3cncc4ccccc34)C2=O)C1 (stereo not drawn) , report its measured IC50.
0.163

====

Endpoint: pIC50. System: SARS-CoV-2 Main Protease (SARS-CoV-2) (UniProt P0DTD1). Items follow.
API: returns pIC50 as number; meaning -log10 of concentration in mol/L.

The following molecules have reported results that may help.
O=C(Nc1cncc2ccccc12)C1CCN(Cc2ccccc2)c2ccc(Cl)cc21 (stereo not given) :: 5.97
CC(C)(C)c1ccc(N(C(=O)c2cnc[nH]2)C(C(=O)NCCc2cccc(F)c2)c2cc(=O)[nH]c3ccccc23)cc1 (stereo not given) :: 5.88
CC(C)(C)c1cc(N(C(=O)c2cocn2)C(C(=O)NCCc2cccc(F)c2)c2cccnc2)no1 (stereo not given) :: 4.29

Now look at this one.
Given the entry `CN(CC(=O)Nc1ccccc1Br)C(=O)CCl` , report its measured pIC50.
5.23

====

- assayed system: SARS-CoV-2 Main Protease (SARS-CoV-2) (UniProt P0DTD1)
Catalogue of pIC50 values
API: returns pIC50 as number; meaning -log10 of concentration in mol/L.

Given the entry CCOc1ccc(N(C(=O)c2cocn2)C(C(=O)NCCc2cccc(F)c2)c2cccnc2)cc1 (stereo not given) , report its measured pIC50.
4.81

Given the entry `CN(c1ccc2c(NC(=O)Cc3cccc(Cl)c3)cncc2c1)S(C)(=O)=O` , report its measured pIC50.
5.57

Given the entry O=C(Nc1cncc2ccccc12)C1CN(S(=O)(=O)CC2(F)CC2)Cc2ccc(Cl)cc21 (stereo not given) , report its measured pIC50.
6.75

Given the entry `O=C(Cc1cc(Cl)cc(Nc2cc(C(F)(F)F)ccn2)c1)Nc1cncc2ccccc12` , report its measured pIC50.
5.74

Given the entry Nc1nn(C(=O)C2CCOc3ccc(Cl)cc32)c2ccncc12 (stereo not given) , report its measured pIC50.
4.06

Given the entry CCNC(=O)CN1CC(C(=O)Nc2cncc3cc(F)ccc23)c2cc(Cl)ccc2C1=O (stereo not given) , report its measured pIC50.
6.79

====

- measurement conditions: cattle; serum
attribute measured: fraction unbound
In your answer, state the number alone without any accompanying words.

Given the entry O=C(Nc1cncc2ccccc12)[C@@H]1CCNc2cc(Cl)c(Cl)cc21 (stereo in doubt) , report its measured fraction unbound.
0.584

====

- assayed system: SARS-CoV-2 Main Protease (SARS-CoV-2) (UniProt P0DTD1)
Exam item: assign class 1 to entries whose IC50 is below 7 µM and class 0 to entries at or above 7 µM. Note that a value of exactly 7 µM receives class 0.

CC(C)S(=O)(=O)Nc1ccc2c(NC(=O)C3CN(S(=O)(=O)CC4(C#N)CC4)Cc4ccc(Cl)cc43)cncc2c1 (stereo not given) :: class 1

Criterion: IC50 strictly below 7 µM. Is it met by O=C1NCC(C(=O)Nc2cncc3ccccc23)c2cc(Cl)ccc21 (stereo not given) ?
class 1

Criterion: IC50 strictly below 7 µM. Is it met by `O=C(Nc1cccnc1)N1CCC(CN2CCc3ccccc32)CC1` ?
class 0

Criterion: IC50 strictly below 7 µM. Is it met by `O=C(Cc1cc(Cl)cc(Nc2ccc3scnc3c2)c1)Nc1cncc2ccccc12` ?
class 1

Criterion: IC50 strictly below 7 µM. Is it met by `O=C(Cc1cc(Cl)cc(Nc2nnc(-c3ccncc3)s2)c1)Nc1cncc2ccccc12` ?
class 1

Criterion: IC50 strictly below 7 µM. Is it met by `CC(=O)N(CC(=O)Nc1ccc(F)c(Cl)c1)c1cccc(C#N)c1` ?
class 0

Criterion: IC50 strictly below 7 µM. Is it met by `Cc1ccncc1NC(=O)Cc1cc(Cl)cc(NS(N)(=O)=O)c1` ?
class 0

Criterion: IC50 strictly below 7 µM. Is it met by `O=C(Cc1cccc(Cl)c1)Nc1[nH]nc2cccnc12` ?
class 0

Criterion: IC50 strictly below 7 µM. Is it met by Cc1cc2c(NC(=O)C3CCOc4ccc(Cl)cc43)cncc2s1 (stereo not given) ?
class 1

Criterion: IC50 strictly below 7 µM. Is it met by `N#Cc1cc(Cl)cc(NC(=O)Nc2cccnc2)c1` ?
class 0

====

Endpoint: pIC50. System: UniProtKB P0DTD1. Items follow.
API: returns pIC50 as number; meaning -log10 of concentration in mol/L.

The following molecules have reported results that may help.
O=C(Cc1cccc(Cl)c1)Nn1cnc2ccccc2c1=O :: 5.06
O=C(Nc1cncc2ccccc12)C(O)c1ccc(Cl)c(Cl)c1 (stereo unspecified) :: 5.70

Now look at this one.
Field: pIC50 (UniProtKB P0DTD1). Entry: C=CC(=O)N(c1ccc(C(F)(F)F)cc1)C(C(=O)NCCc1cccc(F)c1)c1cncc(Cl)c1 (stereo unspecified)
4.62

====

- assayed system: SARS-CoV-2 Main Protease (SARS-CoV-2) (UniProt P0DTD1)
Catalogue of IC50 values
Your answer should be a plain number; it is taken to be in µM.

NC(=O)c1c(Nc2cc(Cl)cc(CC(=O)Nc3cncc4ccccc34)c2)sc2c1CCCC2 :: 2.43
O=C(Cc1cc(Cl)cc(-c2nnn[nH]2)c1)Nc1cncc2ccccc12 :: 21.4
CS(=O)(=O)NCC1(C(=O)Nc2cncc3ccccc23)CCOc2ccc(Cl)cc21 (stereo not given) :: 3.87
Cc1cc(C(F)(F)F)nc2n[nH]c(NC(=O)C3CCOc4ccc(Cl)cc43)c12 (stereo not given) :: 26
CCc1cc(Br)ccc1Nc1cc(Cl)cc(CC(=O)Nc2cncc3ccccc23)c1 :: 3.15

Field: IC50 (SARS-CoV-2 Main Protease (SARS-CoV-2) (UniProt P0DTD1)). Entry: `O=C(Cc1cc(Cl)cc(N2CCN(c3cccc([N+](=O)[O-])c3)CC2)c1)Nc1cncc2ccccc12`
2.87

Field: IC50 (SARS-CoV-2 Main Protease (SARS-CoV-2) (UniProt P0DTD1)). Entry: C[C@H](Nc1cc(Cl)cc(CC(=O)Nc2cncc3ccccc23)c1)c1ccc([N+](=O)[O-])cc1 (stereo in doubt)
1.45

Field: IC50 (SARS-CoV-2 Main Protease (SARS-CoV-2) (UniProt P0DTD1)). Entry: O=C1NC(c2ccc(Cl)c(Cl)c2)C(=O)N1c1cncc2ccccc12 (stereo not given)
8.46

Field: IC50 (SARS-CoV-2 Main Protease (SARS-CoV-2) (UniProt P0DTD1)). Entry: `O=C(Cc1cc(Cl)cc(Nc2ccc3ccccc3c2O)c1)Nc1cncc2ccccc12`
4.1

Field: IC50 (SARS-CoV-2 Main Protease (SARS-CoV-2) (UniProt P0DTD1)). Entry: `O=C(c1cncc2ccccc12)N1CCN(c2cccc(Cl)c2)CC1`
1.6

Field: IC50 (SARS-CoV-2 Main Protease (SARS-CoV-2) (UniProt P0DTD1)). Entry: COc1ccc(NC(=O)C(c2cccnc2)N(C(=O)c2cocn2)c2ccc(C(C)(C)C)cc2)cn1 (stereo not given)
5.37

Field: IC50 (SARS-CoV-2 Main Protease (SARS-CoV-2) (UniProt P0DTD1)). Entry: `O=C1OC(c2cccs2)=N/C1=C\c1ccc(N2CCOCC2)s1`
0.696

Field: IC50 (SARS-CoV-2 Main Protease (SARS-CoV-2) (UniProt P0DTD1)). Entry: `CCCOc1ccc(Nc2cc(Cl)cc(CC(=O)Nc3cncc4ccccc34)c2)cc1`
2.92

Field: IC50 (SARS-CoV-2 Main Protease (SARS-CoV-2) (UniProt P0DTD1)). Entry: CC(C)(c1ccc(N(C(=O)c2cocn2)C(C(=O)NCCc2cccc(F)c2)c2cccnc2)cc1)S(C)(=O)=O (stereo not given)
67.8
